Can you tell me pIC50 for the items I'm about to list?
# Tested on: Ba/F3 P210 WT
# PROTOCOL_SUMMARY: Growth inhibition, viable cells by trypan blue dye exclusion
# Assay type: cell-based, murine
# CONDITION_SUMMARY: Mus musculus, BaF3, concentration reducing number of viable cells by 50%, read-out: MEAN IC50 ± S.D.
Answers are plain numbers, as −log10 of the molar value.

C=CCNC1=C2C[C@@H](C)C[C@H](OC)[C@H](O)[C@@H](C)/C=C(\C)[C@H](OC(N)=O)[C@@H](OC)/C=C\C=C(/C)C(=O)NC(=CC1=O)C2=O | 5.28

With Ba/F3 P210 WT as the test system, provide measured pIC50 for this molecule: COC1=C2C[C@@H](C)C[C@H](OC)[C@H](O)[C@@H](C)/C=C(\C)[C@H](OC(N)=O)[C@@H](OC)/C=C\C=C(/C)C(=O)NC(=CC1=O)C2=O 5.31
